method_notes: Human HepG2 cell viability assay in 384 well format
Type: toxicity, cell-based
Set-up: dose 125 nL, time 70.5 hour; concentration not given beside the values
measurement_context: HepG2 cells, read-out: Inhibition
endpoint: cytotoxicity at 70.5 h (%)
# unit: % | format: bare number

Solved entries (count: 4):
>  <compound>
CCNC(=O)c1ncn2c1CN(C)S(=O)(=O)c1ccccc1-2

>  <units_of_measure>
%

>  <cytotoxicity at 70.5 h>
-8.36

$$$$
>  <compound>
CCOCc1nn(C)c2c1CN(Cc1cccs1)CC2

>  <units_of_measure>
%

>  <cytotoxicity at 70.5 h>
-7.58

$$$$
>  <compound>
CCc1nc2n(n1)CC(NCc1nc(-c3ccccn3)no1)CC2 (centres undefined)

>  <units_of_measure>
%

>  <cytotoxicity at 70.5 h>
-3.45

$$$$
>  <compound>
CN(C)CCNC(=O)c1cc(-c2cnc(N3CCOCC3)nc2)cn1C

>  <units_of_measure>
%

>  <cytotoxicity at 70.5 h>
-8.38

$$$$

Task item: Consider the compound shown here: CC(C)(O)CN1CCN(C(=O)COC2CCCCC2)CC1 What is its recorded cytotoxicity at 70.5 h?
Reply: 1.44

Task item: Lookup Cc1ccc(-c2nc(CCNCc3ccncc3)co2)cc1
Reply: -6.27

Task item: Lookup COc1cccc2c1OCC(C(=O)N(Cc1ccncc1)CC(C)C)C2 (centres undefined)
Reply: 15.1

Task item: Lookup O=C(O)c1ccccc1-c1ccc(CN2CCC(CO)CC2)cn1
Reply: -9.48

Task item: Lookup COc1ccc(C(=O)N2C[C@@H](CN3CCOCC3)[C@@H](CO)C2)c(C)c1
Reply: -7.76
